measurement target: T1, IL-18 receptor (IL-18Rα/IL-18Rβ) on cells (HEK-Blue IL18R reporter cells, NK-92, KG-1) (human, UniProt Q13478 19-541; O95256 20-599)
T1 sequence (looked up) 1: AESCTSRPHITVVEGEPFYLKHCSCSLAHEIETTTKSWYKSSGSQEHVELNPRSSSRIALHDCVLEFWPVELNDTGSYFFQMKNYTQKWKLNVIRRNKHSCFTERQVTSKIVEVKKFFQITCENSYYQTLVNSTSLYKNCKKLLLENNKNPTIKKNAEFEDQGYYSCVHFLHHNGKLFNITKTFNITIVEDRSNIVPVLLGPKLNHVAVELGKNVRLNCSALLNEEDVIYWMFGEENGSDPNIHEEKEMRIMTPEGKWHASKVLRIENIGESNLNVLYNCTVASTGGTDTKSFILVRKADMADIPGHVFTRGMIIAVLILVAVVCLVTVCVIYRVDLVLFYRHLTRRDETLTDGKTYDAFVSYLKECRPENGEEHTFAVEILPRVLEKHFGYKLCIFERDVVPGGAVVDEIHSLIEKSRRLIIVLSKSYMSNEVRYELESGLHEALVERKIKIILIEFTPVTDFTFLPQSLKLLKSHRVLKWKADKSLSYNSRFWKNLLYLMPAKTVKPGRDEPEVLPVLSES
T1 sequence (looked up) 2: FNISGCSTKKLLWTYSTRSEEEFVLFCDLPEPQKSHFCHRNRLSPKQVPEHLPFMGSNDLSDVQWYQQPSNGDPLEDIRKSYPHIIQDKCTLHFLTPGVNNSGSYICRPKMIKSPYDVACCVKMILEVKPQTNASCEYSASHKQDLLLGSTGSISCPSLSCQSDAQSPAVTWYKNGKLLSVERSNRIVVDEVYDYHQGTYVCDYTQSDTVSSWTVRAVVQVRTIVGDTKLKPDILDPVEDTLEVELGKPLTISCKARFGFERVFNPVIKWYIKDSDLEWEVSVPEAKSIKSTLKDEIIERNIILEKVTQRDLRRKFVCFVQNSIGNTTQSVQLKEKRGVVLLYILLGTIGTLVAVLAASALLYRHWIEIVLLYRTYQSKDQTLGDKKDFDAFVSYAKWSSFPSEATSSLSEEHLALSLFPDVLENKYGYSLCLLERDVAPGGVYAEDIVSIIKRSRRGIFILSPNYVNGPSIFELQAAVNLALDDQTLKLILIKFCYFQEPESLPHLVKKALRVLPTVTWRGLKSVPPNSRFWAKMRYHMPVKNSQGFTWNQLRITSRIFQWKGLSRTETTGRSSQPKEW
experiment: cell-based or functional assay
Criterion: EC50, HEK-Blue IL18R reporter cells strictly less than 0.2 pM. Met: rule met. Not met: rule not met.

These recorded examples may help you get a feel for the data.
Q: Please determine if IL-18 polypeptide C192 (SEQ ID NO: 70) (ligand) GYFGKLKSKLSIIRNLNDQVLFIDQGNRPLFEDMTDSDARDNAPRTIFIISGYADSQPRGMAVAISVKCEKISTLSAENKIISFKEMNPPDNIKDTKSDIIFFQRSVPGHDNKMQFESSSYEGYFLAAEKERDLFKLILKKEDELGDRSIMFTVQNED is below 0.2 pM in terms of EC50, HEK-Blue IL18R reporter cells.
Ans: rule not met

Q: Would you mind doing IL-18 polypeptide C156 (ligand, also called V11I, C38A, N41A, K53A, C76A, C127A) YFGKLESKLSIIRNLNDQVLFIDQGNRPLFEDMTDSDARDAAPRTIFIISMYADSQPRGMAVTISVKCEKISTLSAENKIISFKEMNPPDNIKDTKSDIIFFQRSVPGHDNKMQFESSSYEGYFLAAEKERDLFKLILKKEDELGDRSIMFTVQNED as well?
Ans: rule not met

Q: Would you mind doing IL-18 polypeptide C181 (ligand) YFGKLKSKLSIIRNLNDQVLFIDQGNRPLFEDMTDSDARDNAPRTIFIISMYADSQPRGMAVAISVKCEKISTLSAENKIISFKEMNPPDNIKDTKSDIIFFQRSVPGHDNKMQFESSSYEGYFLAAEKERDLFKLILKKEDELGDRSIMFTEQNED as well?
Ans: rule met

Q: Would you mind doing IL-18 polypeptide C152 (ligand, also called V11I, S36A, C38A, K53A, C76A, C127A) YFGKLESKLSIIRNLNDQVLFIDQGNRPLFEDMTDADARDNAPRTIFIISMYADSQPRGMAVTISVKCEKISTLSAENKIISFKEMNPPDNIKDTKSDIIFFQRSVPGHDNKMQFESSSYEGYFLAAEKERDLFKLILKKEDELGDRSIMFTVQNED as well?
Ans: rule not met

Q: Would you mind doing IL-18 polypeptide of SEQ ID NO: 30 (E6K, V11I, C38A, K53A, T63A, C76A, C127A) (ligand, also called C086) YFGKLKSKLSIIRNLNDQVLFIDQGNRPLFEDMTDSDARDNAPRTIFIISMYADSQPRGMAVAISVKCEKISTLSAENKIISFKEMNPPDNIKDTKSDIIFFQRSVPGHDNKMQFESSSYEGYFLAAEKERDLFKLILKKEDELGDRSIMFTVQNED as well?
Ans: rule met

Q: Would you mind doing IL-18 polypeptide C140 (SEQ ID NO: 72) (ligand) GGGGYFGKLKSKLSIIRNLNDQVLFIDQGNRPLFEDMTDSDARDNAPRTIFIISMYADSQPRGMAVAISVKCEKISTLSAENKIISFKEMNPPDNIKDTKSDIIFFQRSVPGHDNKMQFESSSYEGYFLAAEKERDLFKLILKKEDELGDRSIMFTVQNED as well?
Ans: rule not met

Q: Would you mind doing IL-18 polypeptide C141 (SEQ ID NO: 71) (ligand) GYFGKLKSKLSIIRNLNDQVLFIDQGNRPLFEDMTDSDARDNAPRTIFIISMYADSQPRGMAVAISVKCEKISTLSAENKIISFKEMNPPDNIKDTKSDIIFFQRSVPGHDNKMQFESSSYEGYFLAAEKERDLFKLILKKEDELGDRSIMFTVQNED as well?
Ans: rule not met

Q: Would you mind doing IL-18 polypeptide C182 (ligand) YFGKLKSKLSIIRNLNDQVLFIDQGNRPLFEDMTDSDARDNAPRTIFIISMYADSQPRGMAVAISVKCEKISTLSAENKIISFKEMNPPDNIKDTKSDIIFFQRSVPGHDNKMQFESSSYEGYFLAAEKERDLFKLILKKEDELGDRSIMFTYQNED as well?
Ans: rule met

New cases:
Q: Please determine if IL-18 polypeptide C150 (ligand, also called V11I, T34A, C38A, K53A, C76A, C127A) YFGKLESKLSIIRNLNDQVLFIDQGNRPLFEDMADSDARDNAPRTIFIISMYADSQPRGMAVTISVKCEKISTLSAENKIISFKEMNPPDNIKDTKSDIIFFQRSVPGHDNKMQFESSSYEGYFLAAEKERDLFKLILKKEDELGDRSIMFTVQNED is below 0.2 pM in terms of EC50, HEK-Blue IL18R reporter cells.
Ans: rule not met

Q: Would you mind doing IL-18 polypeptide C153 (ligand, also called V11I, D37A, C38A, K53A, C76A, C127A) YFGKLESKLSIIRNLNDQVLFIDQGNRPLFEDMTDSAARDNAPRTIFIISMYADSQPRGMAVTISVKCEKISTLSAENKIISFKEMNPPDNIKDTKSDIIFFQRSVPGHDNKMQFESSSYEGYFLAAEKERDLFKLILKKEDELGDRSIMFTVQNED as well?
Ans: rule not met

Q: Would you mind doing IL-18 polypeptide of SEQ ID NO: 54 (E06K, K53A, C38S, C68S, C76S, C127S, K70C) (ligand) YFGKLKSKLSVIRNLNDQVLFIDQGNRPLFEDMTDSDSRDNAPRTIFIISMYADSQPRGMAVTISVKSECISTLSSENKIISFKEMNPPDNIKDTKSDIIFFQRSVPGHDNKMQFESSSYEGYFLASEKERDLFKLILKKEDELGDRSIMFTVQNED as well?
Ans: rule not met

Q: Would you mind doing IL-18 polypeptide C146 (SEQ ID NO: 68) (ligand, also called V11I, C38A, M51G, K53A, C76A, C127A) YFGKLESKLSIIRNLNDQVLFIDQGNRPLFEDMTDSDARDNAPRTIFIISGYADSQPRGMAVTISVKCEKISTLSAENKIISFKEMNPPDNIKDTKSDIIFFQRSVPGHDNKMQFESSSYEGYFLAAEKERDLFKLILKKEDELGDRSIMFTVQNED as well?
Ans: rule not met

Q: Would you mind doing IL-18 polypeptide C179 (ligand) YFGKLKSELSIIRNLNDQVLFIDQGNRPLFEDMTDSDARDNAPRTIFIISMYADSQPRGMAVAISVKCEKISTLSAENKIISFKEMNPPDNIKDTKSDIIFFRRSVPGHDNKMQFESSSYEGYFLAAEKERDLFKLILKKEDELGDRSIMFTVQNED as well?
Ans: rule not met
